- test-protocol: divya_inp96 Lethal dose in mouse by administering compound intraperitoneally
- Assay type: toxicity, organism-based
- particulars: in vivo, ip
metric-name: LD50 (mg/kg)
Please give a number only; it is taken to be in mg/kg.

Name the reported LD50 value associated with the molecule `CC(=O)Oc1ccccc1C(=O)O`
6500

###

- Species on record: Cavia porcellus
- test-protocol: In vitro inhibitory activity of thrombin (0.625 IU/mL)-induced platelet aggregation in guinea pig platelet rich plasma after 2 min
- Type: functional
metric-name: Inhibition (%)
Reply with just the number (in %).

Study these solved cases before continuing.
Nc1ccc2c(c1)CCC1CC(=O)NN=C21 (configuration not stated) :: 13
CC(=O)Nc1ccc2c(c1)CCC1CC(=O)NN=C21 (stereo in doubt; (-)-3c) :: 62
CC(=O)Nc1ccc2c(c1)C1=NNC(=O)CC1CC2 (configuration not stated) :: 17
CC(=O)Nc1ccc2c(c1)CCc1cc(O)nnc1-2 :: 81
O=C1CC2CCc3ccccc3C2=NN1 (configuration not stated) :: 84
CC(=O)Nc1ccc2c(c1)CCC1CC(=O)NN=C21 (racemic) :: 65

What value of measured Inhibition is listed for CC(=O)Nc1ccc2c(c1)CCC1CC(=O)NN=C21 (single isomer, unassigned; (+)) ?
91

###

- Organism: Cavia porcellus
- test-protocol: In vitro inhibitory activity of collagen (0.8 ug/mL)-induced platelet aggregation in guinea pig platelet rich plasma at a dose of 0.8 ug/mL
- Assay type: functional
metric-name: Inhibition (%)
Give the value, in units of %, as a plain number.

// worked examples, Inhibition included
CC(=O)Nc1ccc2c(c1)CCc1cc(O)nnc1-2 :: 6
CC(=O)Nc1ccc2c(c1)CCC1CC(=O)NN=C21 (stereo in doubt; (-)-3c) :: 10
Nc1ccc2c(c1)CCC1CC(=O)NN=C21 (stereo not drawn) :: 21
CC(=O)Nc1ccc2c(c1)CCC1CC(=O)NN=C21 (racemic) :: 47
CC(=O)Oc1ccccc1C(=O)O :: 75
CC(=O)Nc1ccc2c(c1)C1=NNC(=O)CC1CC2 (stereo not drawn) :: 62
CC(=O)Nc1ccc2c(c1)CCC1CC(=O)NN=C21 (single isomer, unassigned; (+)) :: 2

Then there is this molecule:
Which value of Inhibition has been reported for O=C1CC2CCc3ccccc3C2=NN1 (stereo not drawn) in the records?
100

###

- test-protocol: Lethal dose in mouse by administering compound intraperitoneally
- Assay type: toxicity, organism-based
- particulars: in vivo, ip
The following compounds are listed with their measured LD50 values.
Numeric answer only, unit mg/kg assumed.

N#Cc1ccc2c(c1)CCC1CC(=O)NN=C21 (stereo not drawn) :: 560

Bench note: what LD50 did O=C1CC2CCc3ccccc3C2=NN1 (stereo not drawn) show?
450

###

- test-protocol: Lethal dose in mouse was determined by administering perorally
- Format: toxicity, organism-based
- particulars: in vivo, po
metric-name: LD50

O=C1CC2CCc3ccccc3C2=NN1 (configuration not stated) :: 666 mg/kg
Nc1ccc2c(c1)CCCC1CC(=O)NN=C21 (configuration not stated) :: 700 mg/kg
CC(=O)Nc1cccc2c1CCC1CC(=O)NN=C21 (configuration not stated) :: > 1000 mg/kg
CC(=O)Nc1ccc2c(c1)CCC1CC(=O)NN=C21 (racemic) :: > 1000 mg/kg
CC(=O)Nc1ccc2c(c1)CCc1cc(O)nnc1-2 :: > 1000 mg/kg
Nc1ccc2c(c1)CCC1CC(=O)NN=C21 (configuration not stated) :: > 1000 mg/kg

Look up LD50: N#Cc1ccc2c(c1)CCC1CC(=O)NN=C21 (configuration not stated)
> 1000 mg/kg
